# Measured On: extracellular domain of the FGFR2b protein (NP_075259.4) (UniProt P21802)
# Sequence (P21802 other isoform, or with tags, fused parts or gaps): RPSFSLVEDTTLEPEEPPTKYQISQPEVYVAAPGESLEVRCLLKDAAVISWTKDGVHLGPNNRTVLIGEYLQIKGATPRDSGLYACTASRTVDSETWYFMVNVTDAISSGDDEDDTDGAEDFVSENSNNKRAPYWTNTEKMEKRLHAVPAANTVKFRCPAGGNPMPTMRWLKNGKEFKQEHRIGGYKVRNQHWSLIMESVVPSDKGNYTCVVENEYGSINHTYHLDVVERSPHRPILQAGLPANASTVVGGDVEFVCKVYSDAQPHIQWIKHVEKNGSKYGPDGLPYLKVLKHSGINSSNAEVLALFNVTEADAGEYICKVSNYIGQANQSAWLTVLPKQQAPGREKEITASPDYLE
# Protocol Summary: phage ELISA
# cutoff 2 applies to OD (450 nm) value; >= gives label 1, < gives label 0

API: above_or_equal(metric=OD (450 nm) value, cutoff=2) for item 3D7 scFv displayed on phage (scFv) scFv: QVQLQQSGAELVKPGASVKMSCKASGYTFSFYNMHWVKRTPGRGLEWIGLIYPDNGDTSYNQKFKGKATLTADTSSSTAYMQLSSLTSEDSAVYYCARGGLDYWGQGTSLTVSSGGGGSGGGGSGGGGSEIVLTQSPASLAVSLGQRATISCKASQSVDYDGDSYMNWYQQKPGQPPKLLIYGISNRFSGVPDRFSGSGSGTDFTLKISTIKPEDLGMYYCLQGTHQPYTFGGGTKLEIK label 1

Is the recorded value of OD (450 nm) value equal to or greater than 2 for this binder? 3A12 scFv displayed on phage (scFv) scFv: EVQLQQSGAELVKPGASVKMSCKASGYTFSFYNVHWVRQTPGQGLEWIGLIYPDNGDTSYNQKFKAKATLTADKSSSAAYMQLSSLTSEDSAVYYCARGGFDYWGQGTSLTVSSGGGGSGGGGSGGGGSDIVMTQSHKFMSTSVGDRVNITCKASQDVSTAVAWYQQKPGQSPKLLIYSASYRYSGVPDRFTGSGSGTDFTFTISSVQAEDLAVYYCQQHYSTPYTFGGGTKLEMK label 1

Can 3C9 scFv displayed on phage (scFv) scFv: EIQLQQSGAELVKPGASVKMSCKASGYIFRYYNMHWVKRTPGQGLEWIGLIYPDNGDTSYNQKFKGKATLTADTSSSTAYMQLSSLTSEDSAVYYCARGGLDYWGQGTTLTVSSGGGGSGGGGSGGGGSDIQMIQSPASLSASVGETVTITCGASENIYGALNWYQRKQGKSPQLLIYGATNLADGMSSRFSGSGSGRQYSLKISSLHPDDVATYYCQNVLSTPYTFGGGTKLEIK be said to have OD (450 nm) value at or above 2? label 1

Does the reported OD (450 nm) value for 3A3 scFv displayed on phage (scFv) scFv: QVQLQQSGAELVKPGASVKMSCKASGYTFTTYNIHWVRQTPGQGLEWIGLIYPDNGDTSYNQKFKAKATLTADKSSSTAYMHLSSLTSEDSAVYYCARGGFDYWGQGTTLTVSSGGGGSGGGGSGGGGSDIVMTQSHKFMSTSVGDRVSITCKASQDVNTDVSWYQQKPGQSPKLLIYSASYRYTGVPTRFTGSGSGTDFTFTISGVQAEDLADYYCQQHYNTPYTFGGGTRLEIK fall at or above the 2 mark? label 1
